- study-system: D(3) dopamine receptor (Homo sapiens) (UniProt P35462)
- Sequence (P35462 whole entry, looked up): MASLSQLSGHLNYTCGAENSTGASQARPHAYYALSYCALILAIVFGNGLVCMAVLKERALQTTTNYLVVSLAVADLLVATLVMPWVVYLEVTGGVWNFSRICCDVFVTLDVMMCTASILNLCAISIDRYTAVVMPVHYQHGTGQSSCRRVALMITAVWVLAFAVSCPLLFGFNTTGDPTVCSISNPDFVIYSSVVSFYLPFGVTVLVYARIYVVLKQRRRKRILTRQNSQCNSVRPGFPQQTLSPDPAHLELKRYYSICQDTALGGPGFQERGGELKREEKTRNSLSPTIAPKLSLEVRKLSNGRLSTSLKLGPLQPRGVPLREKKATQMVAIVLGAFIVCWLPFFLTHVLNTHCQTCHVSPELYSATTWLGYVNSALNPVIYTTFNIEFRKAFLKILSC
- test-protocol: qHTS of D3 Dopamine Receptor Antagonist: qHTS; further: on the % scale 0 is the no-effect control and ±100 the full control effect
- protocol-conditions: D3R cells, DiscoveRx beta-arrestin luminescence, antagonist mode; hits give low values
Out of some 360,000 compounds screened, about 9,100 (2.5%) were called active. About 4% were inconclusive and are not listed. This excerpt belongs to a sample that is enriched for actives.
Rule: max response, negative = inhibition below -10% gives yes (1), anything at or above gives no (0).

Observe how each entry below is paired with its result.
compound | cat
Cc1nc2nc(C)c(CCC(=O)N3CCC4(CC3)OCCO4)c(C)n2n1 | yes (1)
O=C(O)C1CSC(c2cccnc2)N1 (stereo unspecified) | yes (1)
Cc1ccc(Cn2c(C)c3cnn(CC(=O)N4CCC5(CC4)OCCO5)c(=O)c3c2C)cc1 | no (0)

Problem: For the compound O=C(N/N=C/c1c(O)n(C2CC2)c(=S)[nH]c1=O)c1ccccc1 , is max response, negative = inhibition under -10%? yes (1)

Problem: For the compound CN1CCN(Cc2ccccc2C(F)(F)F)CC1 , is max response, negative = inhibition under -10%? yes (1)

Problem: For the compound CCC1(CC(C)c2ccccc2)C(=O)NC(=O)NC1=O (stereo unspecified) , is max response, negative = inhibition under -10%? no (0)

Problem: For the compound COc1ccc(C2C=C(C)Oc3c2c(=O)oc2ccccc32)cc1OC (stereo unspecified) , is max response, negative = inhibition under -10%? no (0)

Problem: For the compound Cn1c(O)c(C(=Nc2ccc(F)cc2)c2ccccc2)c(=O)n(C)c1=O , is max response, negative = inhibition under -10%? no (0)

Problem: For the compound O=C(COC(=O)Cc1ccccc1)Nc1ccc(F)cc1 , is max response, negative = inhibition under -10%? no (0)

Problem: For the compound CC(=O)N1CN2CN(C(C)=O)CC(C(=O)c3ccc(Br)cc3)(C2)C1 , is max response, negative = inhibition under -10%? no (0)

* * *

- study-system: D(3) dopamine receptor (Homo sapiens) (UniProt P35462)
- test-protocol: qHTS of D3 Dopamine Receptor Antagonist: qHTS; further: on the % scale 0 is the no-effect control and ±100 the full control effect
- protocol-conditions: D3R cells, DiscoveRx beta-arrestin luminescence, antagonist mode
Among all 360,000 compounds or so, about 9,100 (2.5%) were called active. About 4% were inconclusive and are not listed. Rule as the data show it: active = max response below about -50%; inconclusive = no clear call, values can overlap the other calls; inactive = above that. The sample as a whole holds a higher share of actives than the screen did.
Answer with one of the outcomes active, inactive

Observe how each entry below is paired with its result.
compound | cat
C[C@]12CC[C@H](O)CC1=C([N+](=O)[O-])CC1C2CC[C@@]2(C)C1CC[C@@H]2O (stereo partly drawn) | inactive
CCOC(=O)C1CN(C)CCC1=O (stereo not drawn) | active
CN(C)CC1Oc2ccccc2OC1(O)c1ccccc1 (stereo not drawn) | active
COC1=C[C@@H]2[C@@H]3Cc4ccc(OC)c(O)c4[C@]2(CCN3C)CC1=O | inactive
COc1ccc2c(c1O)-c1cccc3c1[C@@H](C2)N(C)CC3 | active

Record request — test call for C=CCN1C(=O)NC(=O)/C(=C/c2ccc(OCC(=O)Nc3ccc(C)cc3)cc2)C1=O inactive

Record request — test call for C[C@]12CCC3C(CC[C@H]4[C@H](O)[C@H](O)CC[C@]34C)C1CC[C@@H]2O (stereo partly drawn) inactive

Record request — test call for CCOc1cccc(=NC2CCCCC2)c2c(C)[nH]c(C)c12 inactive

Record request — test call for CCN1CCN(C(=O)Cc2coc3cc(C)cc(C)c23)CC1 inactive

Record request — test call for O=C1C2CCN(CC2)C1(CO)CO inactive

Record request — test call for CCC/C(=N\O)c1c[nH]c2ccccc12 inactive

Record request — test call for O=c1[nH]c2ccccc2n1C1CCN(C(c2ccccc2)c2nnnn2Cc2ccccc2)CC1 (stereo not drawn) inactive

Record request — test call for CC(C)c1ccc(O)c(CN2CCN(c3ccccc3)CC2)c1 active

Record request — test call for Cc1cc(=O)oc2c(C)c(OCC(=O)N3CCN(Cc4ccc5c(c4)OCO5)CC3)ccc12 inactive

Record request — test call for Fc1ccc(C2N3CCCN23)cc1 (stereo not drawn) inactive

Record request — test call for CCN1CCN(Cc2cc(OC)c3c(c2)OCO3)CC1 inactive

Record request — test call for COc1ccc(N=Cc2c(O)n(C)c(=O)[nH]c2=O)cc1 inactive

Record request — test call for Cc1ccc(Cn2nnnc2CN2CCC(n3nnc4ccccc43)CC2)cc1 active

Record request — test call for COc1ccc(C(=O)C2CN(C)CC2C(=O)c2ccc(OC)cc2)cc1 (stereo not drawn) inactive

Record request — test call for Clc1ccc2nc3c(c(-c4ccccc4)c2c1)CNCC3 inactive

Record request — test call for CCOC(=O)C(O)(c1ccc(NC(=O)c2ccco2)c(OC)c1)C(F)(F)F (stereo not drawn) inactive

Record request — test call for CCOC(=O)CC(SP1(=S)OCC2(CCCCO2)C(C2CCCCO2)O1)C(=O)OCC (stereo not drawn) inactive

Record request — test call for CN(C)CCN(CC1CCCN(Cc2ccccc2F)C1)C(=O)Cc1ccc(F)c(F)c1 (stereo not drawn) inactive

Values were extracted from PubChem BioAssay AID652054.
